Consider the following compounds; for each one, report its Plant response rating, Velvetleaf.
Tested on: velvetleaf (Abutilon theophrasti)
Test: Test C pre-/postemergence greenhouse test
Type: in vivo
Settings: Preemergence, 61 g ai/ha; scale 0 to 100
Numbers only.

Example compounds with recorded Plant response rating, Velvetleaf:
{"compound-structure-string": "Cc1ccc2ccc(F)cc2c1-c1c(O)c(Cl)nn(C)c1=O", "Plant response rating, Velvetleaf": 40}
{"compound-structure-string": "Cc1cc(Cl)c2ccccc2c1-c1c(O)c(Cl)nn(C)c1=O", "Plant response rating, Velvetleaf": 40}
{"compound-structure-string": "Cc1ccc2ccc(C)c(-c3c(O)c(Cl)nn(C)c3=O)c2c1", "Plant response rating, Velvetleaf": 85}

Enquiry: Look up Plant response rating, Velvetleaf with velvetleaf (Abutilon theophrasti) for this compound: Cc1ccc2ccc(Cl)cc2c1-c1c(O)c(Cl)nn(C)c1=O
Return: 10

----------
Consider the following compounds; for each one, report its Plant response rating, Wheat.
Tested on: wheat, winter (winter wheat, Triticum aestivum)
Experiment: Test C pre-/postemergence greenhouse test
Format: in vivo
Conditions: Preemergence, 61 g ai/ha; scale 0 to 100

Example compounds with recorded Plant response rating, Wheat:
{"compound-structure-string": "Cc1cc(Cl)c2ccccc2c1-c1c(O)c(Cl)nn(C)c1=O", "Plant response rating, Wheat": 30}
{"compound-structure-string": "Cc1ccc2ccc(C)c(-c3c(O)c(Cl)nn(C)c3=O)c2c1", "Plant response rating, Wheat": 0}
{"compound-structure-string": "Cc1ccc2ccc(Cl)cc2c1-c1c(O)c(Cl)nn(C)c1=O", "Plant response rating, Wheat": 60}

Pending compound:
Enquiry: Value lookup for Plant response rating, Wheat; key = Cc1ccc2ccc(F)cc2c1-c1c(O)c(Cl)nn(C)c1=O
Return: 5

----------
System: barnyardgrass (Echinochloa crus-galli)
Assay: Test C pre-/postemergence greenhouse test
Type: in vivo
Conditions: Preemergence, 61 g ai/ha; scale 0 to 100
Consider the following compounds; for each one, report its Plant response rating, Barnyardgrass.
Numbers only.

Example compounds with recorded Plant response rating, Barnyardgrass:
{"compound-structure-string": "Cc1ccc2ccc(Cl)cc2c1-c1c(O)c(Cl)nn(C)c1=O", "Plant response rating, Barnyardgrass": 5}
{"compound-structure-string": "Cc1ccc2ccc(F)cc2c1-c1c(O)c(Cl)nn(C)c1=O", "Plant response rating, Barnyardgrass": 25}

Enquiry: Value lookup for Plant response rating, Barnyardgrass; key = Cc1ccc2ccc(C)c(-c3c(O)c(Cl)nn(C)c3=O)c2c1
Return: 70

----------
Consider the following molecules; for each one, report its Plant response rating, Morningglory.
System: morningglory (Ipomoea coccinea)
Experiment: Test C pre-/postemergence greenhouse test
Type: in vivo
Settings: Preemergence, 61 g ai/ha; scale 0 to 100
One number for each entry.

{"compound-structure-string": "Cc1ccc2ccc(F)cc2c1-c1c(O)c(Cl)nn(C)c1=O", "observed-property": "Plant response rating, Morningglory", "observed-measurement": 5}
{"compound-structure-string": "Cc1ccc2ccc(C)c(-c3c(O)c(Cl)nn(C)c3=O)c2c1", "observed-property": "Plant response rating, Morningglory", "observed-measurement": 70}

Pending molecule:
Enquiry: Value lookup for Plant response rating, Morningglory; key = Cc1cc(Cl)c2ccccc2c1-c1c(O)c(Cl)nn(C)c1=O
Return: 55

Data provenance is patent US12435044B2.
